# tgt: Human α-thrombin (Homo sapiens, UniProt P00734)
Lab note - cut at 40 nM for IC50: Condition met if strictly below, Condition not met if not.

Some entries whose results are on file:
INSERT INTO results (compound, answer_label) VALUES
  ('CCCCC(=O)O[C@@H](C(=O)N1N=CC[C@H]1C(=O)NCc1cc(Cl)ccc1-n1cnnn1)c1ccc(F)cc1 [Example 27]', 'Condition not met'),
  ('CCCC(=O)O[C@@H](C(=O)N1N=CC[C@H]1C(=O)NCc1cc(Cl)ccc1-n1cnnn1)c1ccc(F)cc1 [Example 25]', 'Condition not met'),
  ('O=C(NCc1cc(Cl)ccc1-n1cnnn1)[C@@H]1CC=NN1C(=O)C(O)c1ccc(F)cc1F (stereo partly drawn) [Example 6]', 'Condition met'),
  ('O=C(NCc1cc(Cl)ccc1-n1cnnn1)[C@@H]1CCON1C(=O)C(O)c1cccc(F)c1F (stereo partly drawn) [Example 34]', 'Condition not met'),
  ('O=C(NCc1cc(Cl)ccc1-n1cnnn1)[C@@H]1CC=NN1C(=O)C(O)c1cc(F)cc(F)c1 (stereo partly drawn) [Example 4]', 'Condition met');

# input Threshold test, IC50 < 40 nM: O=C(NCc1cc(Cl)ccc1-n1cnnn1)[C@@H]1CCNN1C(=O)C1(O)CCOc2ccccc21 (stereo partly drawn) [Example 53]
# output Condition not met

====

# pIC50 per entry for Human α-thrombin (Homo sapiens, UniProt P00734)
Friendly reminder that pIC50 comes from taking -log10 of the concentration in mol/L.

INSERT INTO assay_data (compound, tgt, property, measured) VALUES
  ('N#Cc1cccc(C(O)C(=O)N2OCC[C@H]2C(=O)NCc2cc(Cl)ccc2-n2cnnn2)c1 (stereo partly drawn)', 'Human α-thrombin (Homo sapiens, UniProt P00734)', 'pIC50', 7.04),
  ('O=C(NCc1cc(Cl)ccc1-n1cnnn1)[C@@H]1CCNN1C(=O)[C@H](O)c1ccc(F)cc1', 'Human α-thrombin (Homo sapiens, UniProt P00734)', 'pIC50', 8.08),
  ('O=C(NCc1cc(Cl)ccc1-n1cnnn1)[C@@H]1CCON1C(=O)C(O)c1ccccc1F (stereo partly drawn)', 'Human α-thrombin (Homo sapiens, UniProt P00734)', 'pIC50', 7.03),
  ('O=C(NCc1cc(Cl)ccc1-n1cnnn1)[C@@H]1CCNN1C(=O)C(O)c1ccc(F)cc1F (stereo partly drawn)', 'Human α-thrombin (Homo sapiens, UniProt P00734)', 'pIC50', 7.20),
  ('CCCC[C@@H](O)C(=O)N1OCC[C@H]1C(=O)NCc1cc(Cl)ccc1-n1cnnn1', 'Human α-thrombin (Homo sapiens, UniProt P00734)', 'pIC50', 7.37),
  ('O=C(NCc1cc(Cl)ccc1-n1cnnn1)[C@@H]1CC=NN1C(=O)[C@H](O)CC1CC1', 'Human α-thrombin (Homo sapiens, UniProt P00734)', 'pIC50', 7.51),
  ('O=C(NCc1cc(Cl)ccc1-n1cnnn1)[C@@H]1CCNN1C(=O)C(O)c1ccccc1F (stereo partly drawn)', 'Human α-thrombin (Homo sapiens, UniProt P00734)', 'pIC50', 7.10),
  ('O=C(NCc1cc(Cl)ccc1-n1cnnn1)[C@@H]1CCNN1C(=O)[C@H](O)Cc1ccccc1', 'Human α-thrombin (Homo sapiens, UniProt P00734)', 'pIC50', 7.10);

# input Missing value: pIC50, Human α-thrombin (Homo sapiens, UniProt P00734), entry O=C(NCc1cc(Cl)ccc1-n1cnnn1)[C@@H]1CC=NN1C(=O)C1(O)CCOc2ccccc21 (stereo partly drawn) . Fill in?
# output 6.89

# input Missing value: pIC50, Human α-thrombin (Homo sapiens, UniProt P00734), entry "O=C(NCc1cc(Cl)ccc1-n1cnnn1)[C@@H]1CCON1C(=O)[C@H](O)c1ccc(F)cc1" . Fill in?
# output 8.01

# input Missing value: pIC50, Human α-thrombin (Homo sapiens, UniProt P00734), entry O=C(NCc1cc(Cl)ccc1-n1cnnn1)[C@@H]1CCON1C(=O)C(O)c1ccc(F)cc1F (stereo partly drawn) . Fill in?
# output 7.00

# input Missing value: pIC50, Human α-thrombin (Homo sapiens, UniProt P00734), entry "O=C(NCc1cc(Cl)ccc1-n1cnnn1)[C@@H]1CCON1C(=O)[C@H](O)C1CCCCC1" . Fill in?
# output 7.68

src = patent US20110130432A1
